Value source: patent US9492465B2

tested on: HeLa (human cervical cancer) cell line; assay: in vitro cytotoxicity, MTT assay, HeLa cell line; type: cell-based; settings: HeLa cell line, MTT, 24 h exposure; read-out: IC50 Values against HeLa
pIC50: −log10 of the molar value.
Below, each entry is listed alongside its reported pIC50.

# molecule, pIC50
data = [
    ("CC(C)(C)P(C(C)(C)C)C(C)(C)C.[Cl][Au] [Complex (0), [Au{P(t-Bu)3}(Cl)], reference compound]", 4.80),
    ("CCN(CC)C(=S)[S][Au][PH](C(C)(C)C)(C(C)(C)C)C(C)(C)C [Complex (2), [Au{P(t-Bu)3}(S2CN(C2H5)2)]]", 5.49),
    ("CN(C)C(=S)[S][Au][PH](C(C)(C)C)(C(C)(C)C)C(C)(C)C [Complex (1), [Au{P(t-Bu)3}(S2CN(CH3)2)]]", 5.68),
]
